Please respond with reported IC50 for every item in the list.
- TARGET_DESC: human plasma kallikrein (Homo sapiens)
- Sequence (P03952 391-638 limits assumed): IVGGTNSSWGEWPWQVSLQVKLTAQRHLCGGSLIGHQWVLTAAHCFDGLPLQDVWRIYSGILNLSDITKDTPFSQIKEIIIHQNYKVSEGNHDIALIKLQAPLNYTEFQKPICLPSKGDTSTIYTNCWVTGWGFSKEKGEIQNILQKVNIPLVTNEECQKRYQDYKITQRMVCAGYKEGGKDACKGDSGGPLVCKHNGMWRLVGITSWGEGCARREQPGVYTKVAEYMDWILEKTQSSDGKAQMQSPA
- Sequence (P03952 20-390 partner limits assumed): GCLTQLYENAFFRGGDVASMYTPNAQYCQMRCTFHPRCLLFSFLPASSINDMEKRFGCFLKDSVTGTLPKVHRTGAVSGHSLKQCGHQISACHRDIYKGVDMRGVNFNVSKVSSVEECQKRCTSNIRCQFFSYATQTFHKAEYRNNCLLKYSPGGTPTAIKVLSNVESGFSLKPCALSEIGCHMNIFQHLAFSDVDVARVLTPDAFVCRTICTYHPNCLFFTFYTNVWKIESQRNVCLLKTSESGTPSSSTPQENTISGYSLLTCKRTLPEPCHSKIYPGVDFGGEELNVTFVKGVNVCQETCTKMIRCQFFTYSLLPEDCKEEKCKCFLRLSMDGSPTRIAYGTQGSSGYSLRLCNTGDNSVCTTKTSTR
- METHOD_NOTES: Anti-plasma kallikrein activity: inhibition of S-2302 decomposition
- Format: biochemical
- CONDITION_CONTEXT: Table 4, comparative compounds of Table 3; S-2302 substrate, pH 7.8; read-out: Plasma Kallikrein S-2302 (I50)

GET /values?readout=IC50&item= NCc1ccc(C(=O)NC(Cc2ccccc2)C(=O)N2CCCCC2)cc1 (stereo not drawn) [Table 3 Compound No. 3, reference compound]
> 1000 µM

Next record, please: NC[C@H]1CC[C@H](C(=O)O)CC1 [Table 3 Compound No. 1, tranexamic acid, reference compound]
> 1000 µM

Next record, please: CC(=O)NC(Cc1ccc(OCc2ccccc2)cc1)C(=O)N(C)C (stereo not drawn) [Table 3 Compound No. 5, reference compound]
> 200 µM

* * *

- TARGET_DESC: UniProtKB P00747
- METHOD_NOTES: Antiplasmin activity: inhibition of fibrin decomposition
- Format: biochemical
- CONDITION_CONTEXT: Table 2; concentration at which fibrin dissolution time is extended twice, pH 7.4, 37° C.; read-out: Plasmin Fibrin (I50)
OBSERVABLE: log10 IC50 (log10 of the value in µM)
Quick note: numbers are log10 of IC50, with µM as the unit.

GET /values?readout=log10 IC50&item= "CCOC(=O)c1ccc(COc2ccc(C[C@H](NC(=O)[C@H]3CC[C@H](CN)CC3)C(=O)Nc3ccc(C(C)=O)cc3)cc2)cc1"
-0.46

Next record, please: "CC(=O)c1ccc(NC(=O)[C@H](Cc2ccc(OC(=O)OCc3ccccc3Cl)cc2)NC(=O)[C@H]2CC[C@H](CN)CC2)cc1"
-1.12

Next record, please: "NCc1ccc(C(=O)N[C@@H](Cc2ccccc2)C(=O)Nc2cccc(C(F)(F)F)c2)cc1"
1.75

Next record, please: "NC[C@H]1CC[C@H](C(=O)N[C@@H](Cc2ccc(OCc3ccccc3)cc2)C(=O)Nc2ccncc2)CC1"
-0.17

Next record, please: NCc1ccc(C(=O)N[C@@H](Cc2ccc(OCc3ccccc3)cc2)C(=O)NC2CC3CCC2C3)cc1 (stereo partly shown)
-0.24

Next record, please: "CC(=O)c1ccc(NC(=O)[C@H](Cc2ccc(OCc3ccccc3Cl)cc2)NC(=O)[C@H]2CC[C@H](CN)CC2)cc1"
-0.68

Next record, please: "CC(=O)c1ccc(NC(=O)[C@H](Cc2ccc(OCc3cccc(F)c3)cc2)NC(=O)[C@H]2CC[C@H](CN)CC2)cc1"
-0.54

* * *

Please respond with reported pIC50 for every item in the list.
- TARGET_DESC: bovine thrombin (Bos taurus, UniProt P00735)
- METHOD_NOTES: Antithrombin activity: inhibition of S-2238 decomposition
- Type: biochemical
- CONDITION_CONTEXT: Table 4, comparative compounds of Table 3; S-2238 substrate, pH 8.3; read-out: Thrombin S-2238 (I50)
pIC50: −log10 of the molar value.

Which pIC50 is reported with bovine thrombin (Bos taurus, UniProt P00735) for this entry: NCc1ccc(C(=O)NC(Cc2ccccc2)C(=O)N2CCCCC2)cc1 (stereo not shown) [Table 3 Compound No. 3, reference compound] ?
< 3.00

Next record, please: CC(=O)NC(Cc1ccc(OCc2ccccc2)cc1)C(=O)N(C)C (stereo not shown) [Table 3 Compound No. 5, reference compound]
< 3.70

Next record, please: CC(=O)NC(Cc1ccc([N+](=O)[O-])cc1)C(=O)Nc1ccc([N+](=O)[O-])cc1 (stereo not shown) [Table 3 Compound No. 4, reference compound]
< 4.00

Next record, please: NC[C@H]1CC[C@H](C(=O)O)CC1 [Table 3 Compound No. 1, tranexamic acid, reference compound]
< 3.00

* * *

- TARGET_DESC: bovine trypsin (Bos taurus)
- Sequence (P00760 24-246): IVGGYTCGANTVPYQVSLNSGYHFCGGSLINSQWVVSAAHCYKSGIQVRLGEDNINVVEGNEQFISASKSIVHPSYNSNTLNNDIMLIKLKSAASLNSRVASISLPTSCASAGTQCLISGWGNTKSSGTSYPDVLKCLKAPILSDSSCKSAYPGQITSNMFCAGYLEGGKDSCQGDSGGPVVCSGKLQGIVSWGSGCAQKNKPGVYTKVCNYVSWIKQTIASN
- METHOD_NOTES: Antitrypsin activity: inhibition of S-2238 decomposition
- Type: biochemical
- CONDITION_CONTEXT: Table 4, comparative compounds of Table 3; S-2238 substrate, pH 8.1; read-out: Trypsin S-2238 (I50)
pIC50: −log10 of the molar value.
Please respond with reported pIC50 for every item in the list.

GET /values?readout=pIC50&item= NC[C@H]1CC[C@H](C(=O)O)CC1 [Table 3 Compound No. 1, tranexamic acid, reference compound]
< 3.00

Next record, please: NCc1ccc(C(=O)NC(Cc2ccccc2)C(=O)N2CCCCC2)cc1 (centres unmarked) [Table 3 Compound No. 3, reference compound]
< 3.52

* * *

Please respond with reported IC50 for every item in the list.
- TARGET_DESC: human plasmin (Homo sapiens, UniProt P00747)
- Sequence (P00747 581-810 limits assumed): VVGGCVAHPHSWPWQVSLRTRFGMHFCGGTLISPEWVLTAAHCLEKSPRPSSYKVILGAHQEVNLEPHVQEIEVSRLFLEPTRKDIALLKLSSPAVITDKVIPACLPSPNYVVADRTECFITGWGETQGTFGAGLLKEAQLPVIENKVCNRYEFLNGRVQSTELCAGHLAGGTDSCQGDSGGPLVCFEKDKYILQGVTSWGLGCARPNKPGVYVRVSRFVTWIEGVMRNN
- Sequence (P00747 97-580 partner limits assumed): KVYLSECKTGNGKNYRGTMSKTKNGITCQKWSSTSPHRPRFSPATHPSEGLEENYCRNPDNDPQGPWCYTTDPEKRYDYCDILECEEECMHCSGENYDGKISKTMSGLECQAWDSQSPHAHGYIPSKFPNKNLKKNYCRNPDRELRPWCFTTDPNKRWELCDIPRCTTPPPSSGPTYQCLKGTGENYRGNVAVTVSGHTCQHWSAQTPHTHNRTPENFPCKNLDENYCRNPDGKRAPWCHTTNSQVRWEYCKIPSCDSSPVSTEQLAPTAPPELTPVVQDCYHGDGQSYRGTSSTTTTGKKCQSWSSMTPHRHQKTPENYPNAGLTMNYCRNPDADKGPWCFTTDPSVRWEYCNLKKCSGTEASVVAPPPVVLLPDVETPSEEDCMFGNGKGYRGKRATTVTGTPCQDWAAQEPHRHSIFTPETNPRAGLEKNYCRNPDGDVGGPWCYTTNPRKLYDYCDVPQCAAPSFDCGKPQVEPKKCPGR
- METHOD_NOTES: Antiplasmin activity: inhibition of fibrin decomposition
- Type: biochemical
- CONDITION_CONTEXT: Table 2; concentration at which fibrin dissolution time is extended twice, pH 7.4, 37° C.; read-out: Plasmin Fibrin (I50)
Structures can show the parent of a compound that is named as a salt.
Response body: numeric value in nM, unit text excluded.

GET /values?readout=IC50&item= NC[C@H]1CC[C@H](C(=O)N[C@@H](Cc2ccc(Oc3cc(Cl)ccc3[N+](=O)[O-])cc2)C(=O)Nc2ccncc2)CC1 [Compound No. 137, dihydrochloride]
580

Next record, please: CC(=O)c1ccc(NC(=O)[C@H](Cc2ccc(OCc3ccc(Br)cc3)cc2)NC(=O)[C@H]2CC[C@H](CN)CC2)cc1 [compound 17]
280

Next record, please: NC[C@H]1CC[C@H](C(=O)N[C@@H](Cc2ccc(OCc3cccc(Cl)c3)cc2)C(=O)Nc2cccc(Cl)c2)CC1 [compound 66]
92

Next record, please: N=C(N)c1ccc(NC(=O)[C@H](Cc2ccc(OCc3ccccc3)cc2)NC(=O)[C@H]2CC[C@H](CN)CC2)cc1 [compound 126]
830

Next record, please: NCc1ccc(C(=O)N[C@@H](Cc2ccc(OCc3ccccc3)cc2)C(=O)NCCc2ccccc2)cc1 [compound 78]
750

Next record, please: CC1CCC(NC(=O)C(Cc2ccc(OCc3cccc(Cl)c3)cc2)NC(=O)C2CCC(CN)CC2)CC1C (centres unmarked) [compound 102]
160

Next record, please: COc1ccc(NC(=O)[C@H](Cc2ccc(OCc3ccccc3)cc2)NC(=O)c2ccc(CN)cc2)cn1 [compound 140]
2500

Next record, please: CC(=O)c1ccc(NC(=O)[C@H](Cc2ccc(OC(=O)OCc3ccccc3Br)cc2)NC(=O)[C@H]2CC[C@H](CN)CC2)cc1 [compound 144]
51

Next record, please: CC(=O)c1ccc(NC(=O)[C@H](Cc2ccc(OCc3cccc([N+](=O)[O-])c3)cc2)NC(=O)[C@H]2CC[C@H](CN)CC2)cc1 [compound 54]
190

Next record, please: NCc1ccc(C(=O)N[C@@H](Cc2ccc(OCc3ccccc3)cc2)C(=O)N2CCC(C(=O)c3ccccc3)CC2)cc1 [compound 76]
2400

Next record, please: CC(=O)c1ccc(NC(=O)[C@H](Cc2ccc(OCC(=O)c3ccccc3)cc2)NC(=O)[C@H]2CC[C@H](CN)CC2)cc1 [compound 30]
950

Next record, please: NCc1ccc(C(=O)NC(Cc2ccc(OCc3ccccc3)cc2)C(=O)NCc2ccc(F)cc2)cc1 (centres unmarked) [compound 113]
1700

Next record, please: NCc1ccc(C(=O)N[C@@H](Cc2ccc(OCc3ccccc3)cc2)C(=O)Nc2ccc(C(=O)O)cc2)cc1 [compound 139]
190000

Next record, please: CC(=O)c1ccc(NC(=O)[C@H](Cc2ccc([N+](=O)[O-])cc2)NC(=O)[C@H]2CC[C@H](CN)CC2)cc1 [compound 130, hydrochloride]
7100

* * *

- TARGET_DESC: human plasmin (Homo sapiens, UniProt P00747)
- METHOD_NOTES: biochemical
- CONDITION_CONTEXT: read-out: Plasmin S-2251 (I50)
pIC50: −log10 of the molar value. Structures can show the parent of a compound that is named as a salt.
Please note: T applies when pIC50 is 6 or greater, and F applies otherwise.

Please check the record CC(=O)c1ccc(NC(=O)[C@H](Cc2ccc(Oc3ccc([N+](=O)[O-])cc3)cc2)NC(=O)[C@H]2CC[C@H](CN)CC2)cc1 [Compound No. 95, hydrochloride] and state if its pIC50 is at or above 6.
T

Next record, please: "NC[C@H]1CC[C@H](C(=O)N[C@@H](Cc2ccc(OCc3ccccc3)cc2)C(=O)Nc2cccc([N+](=O)[O-])c2)CC1"
F

Next record, please: "NCc1ccc(C(=O)N[C@@H](Cc2ccc(OCc3ccccc3)cc2)C(=O)N2CCN(C(=O)c3ccccc3)CC2)cc1"
F

Next record, please: "Cc1ccc(NC(=O)[C@H](Cc2ccc(OCc3ccccc3)cc2)NC(=O)c2ccc(CN)cc2)cc1C"
F

Next record, please: "CC(=O)c1ccc(NC(=O)[C@H](Cc2ccc(OC(=O)OCc3ccccc3)cc2)NC(=O)[C@H]2CC[C@H](CN)CC2)cc1"
T

Next record, please: "NC[C@H]1CC[C@H](C(=O)N[C@@H](Cc2ccc(OCc3ccccc3)cc2)C(=O)N2CCC(C(=O)c3ccccc3)CC2)CC1"
F

Next record, please: "CSc1ccc(NC(=O)[C@H](Cc2ccc(OCc3ccccc3)cc2)NC(=O)[C@H]2CC[C@H](CN)CC2)cc1"
F

Next record, please: "COc1ccc(NC(=O)[C@H](Cc2ccc(OCc3ccccc3)cc2)NC(=O)c2ccc(CN)cc2)cn1"
F
